- Assay Notes: Cmax in Sprague-Dawley rat at 3 mg/kg, po and 1 mg/kg, iv measured upto 48 hrs by LC-MS/MS analysis
- Assay type: ADME, organism-based
- Parameters: dose 3 mg/kg, time <=48
- Assay Context: in vivo
Observable: Cmax (nM)
API: value field is a number in nM; no unit string.

Look over these answered cases.
Which value of Cmax has been reported for COc1nc(C(=O)NC[C@](C)(O)C(F)(F)F)c(N)cc1C(F)(F)F [ICENTICAFTOR] in the records?
1360

Which value of Cmax has been reported for C[C@](O)(CNC(=O)c1nc(C(F)(F)F)c(C(F)(F)F)cc1N)C(F)(F)F in the records?
595

In the following, a different molecule is considered.
Which value of Cmax has been reported for C[C@](O)(CNC(=O)c1nc(Br)c(C(F)(F)F)cc1N)C(F)(F)F in the records?
634

---

- System: Cystic fibrosis transmembrane conductance regulator (Homo sapiens), P13569 [F508del]
- Sequence (P13569 as listed by the source): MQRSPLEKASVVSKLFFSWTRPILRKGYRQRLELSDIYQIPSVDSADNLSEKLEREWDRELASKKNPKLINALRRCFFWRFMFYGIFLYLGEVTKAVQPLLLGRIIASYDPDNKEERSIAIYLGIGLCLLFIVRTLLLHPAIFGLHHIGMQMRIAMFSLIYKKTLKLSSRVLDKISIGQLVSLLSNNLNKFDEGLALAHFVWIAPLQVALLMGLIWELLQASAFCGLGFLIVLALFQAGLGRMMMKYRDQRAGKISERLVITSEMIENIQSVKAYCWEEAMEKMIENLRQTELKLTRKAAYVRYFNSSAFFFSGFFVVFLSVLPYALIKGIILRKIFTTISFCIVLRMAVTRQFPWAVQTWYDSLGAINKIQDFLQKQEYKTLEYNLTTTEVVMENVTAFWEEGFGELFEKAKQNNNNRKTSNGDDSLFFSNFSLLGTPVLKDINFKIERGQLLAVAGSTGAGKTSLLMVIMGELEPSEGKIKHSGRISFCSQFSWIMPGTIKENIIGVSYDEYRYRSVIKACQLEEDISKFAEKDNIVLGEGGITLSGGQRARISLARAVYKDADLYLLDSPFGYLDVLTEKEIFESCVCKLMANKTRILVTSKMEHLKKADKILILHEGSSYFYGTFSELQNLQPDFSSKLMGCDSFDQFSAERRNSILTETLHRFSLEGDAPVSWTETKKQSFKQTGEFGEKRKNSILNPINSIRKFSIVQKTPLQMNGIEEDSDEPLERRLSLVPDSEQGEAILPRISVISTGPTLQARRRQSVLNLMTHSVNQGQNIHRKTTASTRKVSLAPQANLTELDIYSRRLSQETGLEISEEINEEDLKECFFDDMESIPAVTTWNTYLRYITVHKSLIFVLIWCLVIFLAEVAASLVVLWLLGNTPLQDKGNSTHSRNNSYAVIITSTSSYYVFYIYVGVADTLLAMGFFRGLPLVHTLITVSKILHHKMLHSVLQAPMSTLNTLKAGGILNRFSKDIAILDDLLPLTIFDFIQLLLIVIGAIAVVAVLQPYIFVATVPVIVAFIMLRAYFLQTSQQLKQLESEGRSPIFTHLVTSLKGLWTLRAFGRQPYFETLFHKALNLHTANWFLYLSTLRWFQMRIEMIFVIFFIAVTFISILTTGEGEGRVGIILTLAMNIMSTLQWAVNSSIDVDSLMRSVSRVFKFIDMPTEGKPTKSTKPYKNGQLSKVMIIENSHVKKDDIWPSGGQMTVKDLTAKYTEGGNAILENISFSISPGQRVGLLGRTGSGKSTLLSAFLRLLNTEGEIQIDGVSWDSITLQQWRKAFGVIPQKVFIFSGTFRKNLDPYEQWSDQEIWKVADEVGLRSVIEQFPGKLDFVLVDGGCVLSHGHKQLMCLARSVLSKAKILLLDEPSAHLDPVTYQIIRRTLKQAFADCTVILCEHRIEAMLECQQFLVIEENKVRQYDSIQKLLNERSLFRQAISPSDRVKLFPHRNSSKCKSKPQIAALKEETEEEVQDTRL
- Assay Notes: Potentiation of CFTR F508del mutant (unknown origin) expressed in CHO cells assessed as chloride transport by measuring membrane potential incubated for 5 to 30 mins in presence of forskolin by Quattro assay relative to PG-01
- Type: cell-based
- Parameters: concentration or dose not given beside the values
- Assay Context: filed as activator, time 5-30 min
Observable: Activity (%)
API: value field is a number in %; no unit string.

Look over these answered cases.
Query Activity on Cystic fibrosis transmembrane conductance regulator (Homo sapiens), P13569 [F508del] for O=c1c(-c2ccc(O)cc2)coc2cc(O)cc(O)c12
88

Query Activity on Cystic fibrosis transmembrane conductance regulator (Homo sapiens), P13569 [F508del] for C[C@](O)(CNC(=O)c1nc(Br)c(C(F)(F)F)cc1N)C(F)(F)F
107

Query Activity on Cystic fibrosis transmembrane conductance regulator (Homo sapiens), P13569 [F508del] for COC(=O)c1cc(I)c(C(F)(F)F)cc1N
104

Query Activity on Cystic fibrosis transmembrane conductance regulator (Homo sapiens), P13569 [F508del] for C[C@@](O)(CNC(=O)c1nc(Br)c(C(F)(F)F)cc1N)C(F)(F)F
91

More entries:
Query Activity on Cystic fibrosis transmembrane conductance regulator (Homo sapiens), P13569 [F508del] for CN(C)c1nc(C(=O)NCC(C)(O)C(F)(F)F)c(N)cc1C(F)(F)F (stereo in doubt; 31b)
93

Query Activity on Cystic fibrosis transmembrane conductance regulator (Homo sapiens), P13569 [F508del] for Nc1cc(C(F)(F)F)c(-c2ccco2)cc1C(=O)O
63

Query Activity on Cystic fibrosis transmembrane conductance regulator (Homo sapiens), P13569 [F508del] for CN(C)c1nc(C(=O)NCC(C)(O)C(F)(F)F)c(N)cc1C(F)(F)F (stereo in doubt; 31a)
89

Query Activity on Cystic fibrosis transmembrane conductance regulator (Homo sapiens), P13569 [F508del] for CC(C)(O)CNC(=O)c1nc(Br)c(C(F)(F)F)cc1N
101

Query Activity on Cystic fibrosis transmembrane conductance regulator (Homo sapiens), P13569 [F508del] for Nc1cc(C(F)(F)F)c(Br)nc1C(=O)NC[C@@H](O)C(F)(F)F
100

Query Activity on Cystic fibrosis transmembrane conductance regulator (Homo sapiens), P13569 [F508del] for CNc1nc(C(=O)NCC(C)(O)C(F)(F)F)c(N)cc1C(F)(F)F (stereo in doubt; 30a)
91

---

- Assay Notes: Volume of distribution at steady state in Sprague-Dawley rat at 3 mg/kg, po and 0.5 mg/kg, iv measured upto 48 hrs by LC-MS/MS analysis
- Assay type: ADME, organism-based
- Assay Context: in vivo, read-out: Vdss
Observable: Vd (L/kg)
API: value field is a number in L/kg; no unit string.

Which value of Vd has been reported for Nc1cc(C(F)(F)F)c(Br)nc1C(=O)NC[C@@H](O)C(F)(F)F in the records?
3.2

---

This section presents compounds with their documented Activity values.
- Target Of Assay: Cystic fibrosis transmembrane conductance regulator (Homo sapiens, UniProt P13569)
- Sequence (P13569 whole entry, looked up): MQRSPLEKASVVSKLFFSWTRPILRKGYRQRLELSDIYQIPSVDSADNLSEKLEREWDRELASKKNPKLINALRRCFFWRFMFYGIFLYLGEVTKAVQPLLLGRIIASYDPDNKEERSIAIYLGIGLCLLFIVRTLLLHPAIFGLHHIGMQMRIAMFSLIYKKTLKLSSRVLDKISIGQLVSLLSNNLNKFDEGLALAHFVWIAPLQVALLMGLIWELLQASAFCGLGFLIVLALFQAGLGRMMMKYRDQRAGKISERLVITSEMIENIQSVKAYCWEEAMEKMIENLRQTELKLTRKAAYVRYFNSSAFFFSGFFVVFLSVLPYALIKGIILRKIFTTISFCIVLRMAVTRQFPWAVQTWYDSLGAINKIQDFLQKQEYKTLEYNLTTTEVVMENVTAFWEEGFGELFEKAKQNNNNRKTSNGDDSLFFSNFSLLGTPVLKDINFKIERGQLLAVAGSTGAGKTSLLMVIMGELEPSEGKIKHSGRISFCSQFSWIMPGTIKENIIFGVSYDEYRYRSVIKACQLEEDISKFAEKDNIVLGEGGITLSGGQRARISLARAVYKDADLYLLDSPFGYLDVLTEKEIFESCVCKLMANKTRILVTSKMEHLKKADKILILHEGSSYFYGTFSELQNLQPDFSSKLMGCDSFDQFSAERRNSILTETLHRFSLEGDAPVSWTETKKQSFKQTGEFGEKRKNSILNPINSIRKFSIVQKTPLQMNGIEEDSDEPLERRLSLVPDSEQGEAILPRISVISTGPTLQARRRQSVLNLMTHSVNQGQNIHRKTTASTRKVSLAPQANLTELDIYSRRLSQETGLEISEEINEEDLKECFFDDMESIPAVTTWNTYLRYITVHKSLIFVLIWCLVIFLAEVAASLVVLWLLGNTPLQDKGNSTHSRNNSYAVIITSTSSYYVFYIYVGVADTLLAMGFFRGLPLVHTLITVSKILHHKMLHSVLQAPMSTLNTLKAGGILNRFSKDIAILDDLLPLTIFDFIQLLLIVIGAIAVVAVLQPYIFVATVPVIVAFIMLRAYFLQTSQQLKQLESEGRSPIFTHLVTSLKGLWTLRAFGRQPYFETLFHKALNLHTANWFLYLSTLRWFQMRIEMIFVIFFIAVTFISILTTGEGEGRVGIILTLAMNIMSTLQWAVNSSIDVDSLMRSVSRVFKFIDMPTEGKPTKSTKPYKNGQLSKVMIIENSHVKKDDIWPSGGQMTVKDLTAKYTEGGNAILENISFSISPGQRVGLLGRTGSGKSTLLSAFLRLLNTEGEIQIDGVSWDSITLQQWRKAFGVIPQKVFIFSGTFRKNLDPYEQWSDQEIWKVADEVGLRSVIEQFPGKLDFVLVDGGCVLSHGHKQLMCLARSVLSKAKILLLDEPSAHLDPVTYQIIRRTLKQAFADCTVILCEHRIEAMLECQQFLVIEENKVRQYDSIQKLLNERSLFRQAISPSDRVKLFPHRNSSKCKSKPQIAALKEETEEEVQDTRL
- Assay Notes: Potentiation of wild-type CFTR (unknown origin) expressed in FRT cells assessed as chloride transport by measuring membrane potential in presence of forskolin relative to PG-01
- Format: cell-based
- Assay Context: filed as activator
API: value field is a number in %; no unit string.

Which value of Activity has been reported for O=c1c(-c2ccc(O)cc2)coc2cc(O)cc(O)c12 in the records?
138

Which value of Activity has been reported for C[C@](O)(CNC(=O)c1nc(Br)c(C(F)(F)F)cc1N)C(F)(F)F in the records?
140

More entries:
Which value of Activity has been reported for COC(=O)c1cc(-c2ccco2)c(C(F)(F)F)cc1N in the records?
206

Which value of Activity has been reported for COc1nc(C(=O)NC[C@](C)(O)C(F)(F)F)c(N)cc1C(F)(F)F [ICENTICAFTOR] in the records?
79

---

- Assay Notes: Cmax in cynomolgus monkey at 10 mg/kg, po or 0.1 mg/kg, iv after 48 hrs by LC-MS/MS analysis
- Type: ADME, organism-based, Macaca fascicularis
- Parameters: time 48 hrs, dose 10 mg/kg
- Assay Context: in vivo
Observable: Cmax (nM)
API: value field is a number in nM; no unit string.

Which value of Cmax has been reported for COc1nc(C(=O)NC[C@](C)(O)C(F)(F)F)c(N)cc1C(F)(F)F [ICENTICAFTOR] in the records?
2300

---

- Assay Notes: Plasma Protein binding in Sprague-Dawley rat at 5 uM incubated for 4 hrs by rapid equilibrium dialysis
- Assay type: ADME, cell-free
- Assay Context: read-out: PPB (converted)
This section presents compounds with their documented fraction unbound at 4 h, 5 µM values.
A bare number is all that is needed in reply.

Which value of fraction unbound at 4 h, 5 µM has been reported for C[C@](O)(CNC(=O)c1nc(Br)c(C(F)(F)F)cc1N)C(F)(F)F in the records?
0.031

Which value of fraction unbound at 4 h, 5 µM has been reported for COC(=O)c1cc(-c2ccco2)c(C(F)(F)F)cc1N in the records?
0.005

Which value of fraction unbound at 4 h, 5 µM has been reported for C[C@](O)(CNC(=O)c1nc(C(F)(F)F)c(C(F)(F)F)cc1N)C(F)(F)F in the records?
0.019

In the following, a different compound is considered.
Which value of fraction unbound at 4 h, 5 µM has been reported for COc1nc(C(=O)NC[C@](C)(O)C(F)(F)F)c(N)cc1C(F)(F)F [ICENTICAFTOR] in the records?
0.097

---

- Assay Notes: Cmax in Beagle dog at 3 mg/kg, po or 0.46 mg/kg, iv after 48 hrs by LC-MS/MS analysis
- Type: ADME, organism-based, Canis lupus familiaris
- Parameters: time 48 hrs, dose 3 mg/kg
- Assay Context: in vivo
Observable: Cmax (nM)
API: value field is a number in nM; no unit string.

Which value of Cmax has been reported for COc1nc(C(=O)NC[C@](C)(O)C(F)(F)F)c(N)cc1C(F)(F)F in the records?
1950

---

- Assay Notes: Mean residence time in Sprague-Dawley rat at 5 mg/kg, po or 0.5 mg/kg, iv measured upto 48 hrs by LC-MS/MS analysis
- Format: ADME, organism-based
- Assay Context: in vivo
Observable: MRT (min)
API: value field is a number in min; no unit string.

Which value of MRT has been reported for COC(=O)c1cc(-c2ccco2)c(C(F)(F)F)cc1N in the records?
12

---

- Assay Notes: Clearance in cynomolgus monkey blood at 10 mg/kg, po or 0.1 mg/kg, iv after 48 hrs by LC-MS/MS analysis
- Assay type: ADME, organism-based, Macaca fascicularis
Observable: clearance (mL/min/kg)
API: value field is a number in mL/min/kg; no unit string.

Which value of clearance has been reported for COc1nc(C(=O)NC[C@](C)(O)C(F)(F)F)c(N)cc1C(F)(F)F [ICENTICAFTOR] in the records?
20.2

---

- Assay Notes: Plasma protein binding in cynomolgus monkey at 5 uM incubated for 4 hrs by equilibrium dialysis method
- Format: ADME, cell-free, Macaca fascicularis
- Assay Context: read-out: PPB (converted)
Observable: fraction unbound at 4 h, 5 µM
A bare number is all that is needed in reply.

Which value of fraction unbound at 4 h, 5 µM has been reported for COc1nc(C(=O)NC[14C](C)(O)C(F)(F)F)c(N)cc1C(F)(F)F (stereo unspecified) in the records?
0.12

---

- Assay Notes: Clearance in Beagle dog plasma at 3 mg/kg, po or 0.46 mg/kg, iv after 48 hrs by LC-MS/MS analysis
- Type: ADME, organism-based, Canis lupus familiaris
Observable: clearance (mL/min/kg)
API: value field is a number in mL/min/kg; no unit string.

Which value of clearance has been reported for COc1nc(C(=O)NC[C@](C)(O)C(F)(F)F)c(N)cc1C(F)(F)F [ICENTICAFTOR] in the records?
29
